Reference source for all entries: PubChem BioAssay

Reported values of growth inhibition for individual entries
EXPERIMENTAL DETAILS: inhibition of 3D7 malaria parasite growth – strain 3D7 (AID 2306);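 also: 0% = DMSO wells and 100% = chloroquine plus artemisinin control wells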
CONDITION CONTEXT: P. falciparum 3D7 erythrocytic growth, LDH absorbance, 72 h; at 2 µM; stronger effect = higher value

[
  {
    "MOLECULE": "O=C(NCCCCN1CCC(c2ccc3ccccc3c2O)CC1)c1ccc(NC(=O)c2ccc(Cl)cc2)cc1",
    "UNIT": "%",
    "growth inhibition": 101
  },
  {
    "MOLECULE": "Oc1ccc(CCNc2nc(NCc3ccccc3-c3ccccc3)nc(N3CCCNCC3)n2)cc1",
    "UNIT": "%",
    "growth inhibition": 95
  },
  {
    "MOLECULE": "O=C(Nc1ccccc1)N(Cc1ccc(-c2ccc(CNCc3ccc4c(c3)OCO4)cc2)cc1)C1CCN(Cc2ccccc2)CC1",
    "UNIT": "%",
    "growth inhibition": 98
  },
  {
    "MOLECULE": "Cc1cc(NC(=O)NCCN2CCC(NC(=O)c3ccc(C(F)(F)F)cc3)CC2)c2ccccc2n1",
    "UNIT": "%",
    "growth inhibition": 98
  },
  {
    "MOLECULE": "Cc1cc2ccc(/C=C/C(=O)NC3CCC(CCN4CCc5ccc(C#N)cc5CC4)CC3)cc2[nH]1 (stereo not drawn)",
    "UNIT": "%",
    "growth inhibition": 84
  },
  {
    "MOLECULE": "c1ccc(CCNc2ncnc3c2[nH]c2ccccc23)cc1",
    "UNIT": "%",
    "growth inhibition": 95
  },
  {
    "MOLECULE": "Nc1ncnc2cc(-c3cccc(S(N)(=O)=O)c3)sc12",
    "UNIT": "%",
    "growth inhibition": 98
  },
  {
    "MOLECULE": "CS(=O)(=O)Nc1ccc(-c2ccc3ccnc(N)c3c2)cc1",
    "UNIT": "%",
    "growth inhibition": 85
  },
  {
    "MOLECULE": "CCCCCCNC(=O)C1Cc2c([nH]c3ccc(C)cc23)C2(CCN(Cc3ccccc3)CC2)N1 (stereo not drawn)",
    "UNIT": "%",
    "growth inhibition": 84
  },
  {
    "MOLECULE": "O=C(CSc1nc(-c2ccccc2Cl)ns1)Nc1ccc2c(c1)OCO2",
    "UNIT": "%",
    "growth inhibition": 93
  },
  {
    "MOLECULE": "COc1ccc2nccc(N3CCC(CCNCc4ccc5c(n4)NC(=O)CO5)CC3)c2n1",
    "UNIT": "%",
    "growth inhibition": 101
  },
  {
    "MOLECULE": "CCCNCc1ccc(-c2ccc(CN(Cc3cnc(C)cn3)C(=O)/C=C/c3ccccc3C)cc2)nc1",
    "UNIT": "%",
    "growth inhibition": 95
  },
  {
    "MOLECULE": "O=C(Nc1cc(F)cc(F)c1)N[C@H]1CCN(CCCCCNC(=O)[C@@H]2C[C@H]2c2ccc(Cl)c(Cl)c2)C1",
    "UNIT": "%",
    "growth inhibition": 88
  },
  {
    "MOLECULE": "O=C(/C=C/c1ccc(Cl)c(Cl)c1)N1CCC(NCc2c[nH]c3ccccc23)CC1",
    "UNIT": "%",
    "growth inhibition": 94
  },
  {
    "MOLECULE": "O=S(=O)(/C=C/c1ccccc1)N(Cc1ccc(-c2ccc(CNCCc3ccccn3)cc2)cc1)CC1CCCCN1 (stereo not drawn)",
    "UNIT": "%",
    "growth inhibition": 100
  },
  {
    "MOLECULE": "Cc1ccc(S(=O)(=O)n2cc(-c3ccnc(N)c3)c3cc(Br)cnc32)cc1",
    "UNIT": "%",
    "growth inhibition": 98
  },
  {
    "MOLECULE": "CC(C)Oc1cccc(-c2ccc(C(=O)NCC3CCCN(Cc4cccc(C(F)(F)F)c4)C3)s2)c1 (stereo not drawn)",
    "UNIT": "%",
    "growth inhibition": 91
  },
  {
    "MOLECULE": "CC(C)(C)c1cc(N=NC(=O)c2ccncc2)cc(C(C)(C)C)c1O",
    "UNIT": "%",
    "growth inhibition": 99
  },
  {
    "MOLECULE": "Nc1ccnc2ccc(OCCCCCCc3ccccc3)cc12",
    "UNIT": "%",
    "growth inhibition": 100
  },
  {
    "MOLECULE": "COc1ccc2nccc(NN=Cc3ccccc3Cl)c2c1",
    "UNIT": "%",
    "growth inhibition": 100
  },
  {
    "MOLECULE": "CN1CCN(c2ccnc3ccc(NC(=O)Cc4ccc(Br)c5ccccc45)cc23)CC1",
    "UNIT": "%",
    "growth inhibition": 96
  },
  {
    "MOLECULE": "CC(=O)c1cccc(NC(=O)N2CCCN(CCCCCNC(=O)/C=C/c3ccc(Cl)c(Cl)c3)CC2)c1",
    "UNIT": "%",
    "growth inhibition": 93
  },
  {
    "MOLECULE": "c1ccc(C(c2cccs2)N2CCN(Cc3ccc(OCCCN4CCCCC4)cc3)CC2)cc1 (stereo not drawn)",
    "UNIT": "%",
    "growth inhibition": 91
  },
  {
    "MOLECULE": "Cn1nc(-c2ccc(NC(=O)Nc3cc(C(F)(F)F)ccc3F)cc2)c2cnc(NCCCCN3CCCC3)nc21",
    "UNIT": "%",
    "growth inhibition": 98
  },
  {
    "MOLECULE": "COc1cc2nc(N3CCC(CNC(=O)c4ccc(-c5ccc(C(=O)N(C)C)cc5O)cc4)CC3)nc(N)c2cc1OC",
    "UNIT": "%",
    "growth inhibition": 101
  },
  {
    "MOLECULE": "COc1cccc2cc(C(=O)N[C@@H](CC(C)C)C(=O)N[C@H](/C=N/NC(=O)OC(C)(C)C)CC(=O)OC(C)(C)C)oc12",
    "UNIT": "%",
    "growth inhibition": 85
  },
  {
    "MOLECULE": "COc1ccc(-c2cccc(NC(=O)c3cccc(C#N)c3)c2)cc1CNC(C)C",
    "UNIT": "%",
    "growth inhibition": 101
  },
  {
    "MOLECULE": "CCN(CC)CCN(Cc1ccc(-c2ccc(C(F)(F)F)cc2)cc1)C(=O)Cn1cc(CCCc2cccc(F)c2F)c(=O)c2ccccc21",
    "UNIT": "%",
    "growth inhibition": 89
  },
  {
    "MOLECULE": "CC(CN(C)C)Oc1ccc2[nH]c(-c3cccc(OCc4ccccc4)c3)nc2c1C#N (stereo not drawn)",
    "UNIT": "%",
    "growth inhibition": 101
  },
  {
    "MOLECULE": "COc1ccc2c(NN=Cc3ccccc3[N+](=O)[O-])ccnc2c1",
    "UNIT": "%",
    "growth inhibition": 102
  },
  {
    "MOLECULE": "CNC(=O)COc1cc(C)c(C2CCN(CCCCNC(=O)c3ccc(-c4ccc(C(F)(F)F)cc4)cc3)CC2)cc1C",
    "UNIT": "%",
    "growth inhibition": 100
  },
  {
    "MOLECULE": "NC(N)=NCC=C(c1ccccc1)c1ccccc1",
    "UNIT": "%",
    "growth inhibition": 94
  },
  {
    "MOLECULE": "COc1ccc2nc(/C=C/c3cccc4ccc(C)nc34)[nH]c2c1",
    "UNIT": "%",
    "growth inhibition": 98
  },
  {
    "MOLECULE": "O=[N+]([O-])c1ccc(NC(=NCCOc2ccccc2)Nc2ccccc2Br)c(O)c1",
    "UNIT": "%",
    "growth inhibition": 88
  },
  {
    "MOLECULE": "COc1ccc2[nH]c(C(=O)Nc3ccc4nc(-c5ccccc5)[nH]c4c3)cc2c1",
    "UNIT": "%",
    "growth inhibition": 96
  },
  {
    "MOLECULE": "O=C(CCNc1ccnc(NCC2CCCCC2)n1)Nc1ccccc1",
    "UNIT": "%",
    "growth inhibition": 95
  },
  {
    "MOLECULE": "Cc1noc(-c2cccs2)c1C(=O)NCCc1cccc(Cl)c1",
    "UNIT": "%",
    "growth inhibition": 97
  },
  {
    "MOLECULE": "O=S(=O)(NCCN1CCCC1)c1ccc(-c2ccc(CNCc3ccsc3)cc2)cc1",
    "UNIT": "%",
    "growth inhibition": 95
  }
]
